Target: PDE10A (Homo sapiens, UniProt Q9Y233)
Sequence (Q9Y233 290-1055 limits assumed): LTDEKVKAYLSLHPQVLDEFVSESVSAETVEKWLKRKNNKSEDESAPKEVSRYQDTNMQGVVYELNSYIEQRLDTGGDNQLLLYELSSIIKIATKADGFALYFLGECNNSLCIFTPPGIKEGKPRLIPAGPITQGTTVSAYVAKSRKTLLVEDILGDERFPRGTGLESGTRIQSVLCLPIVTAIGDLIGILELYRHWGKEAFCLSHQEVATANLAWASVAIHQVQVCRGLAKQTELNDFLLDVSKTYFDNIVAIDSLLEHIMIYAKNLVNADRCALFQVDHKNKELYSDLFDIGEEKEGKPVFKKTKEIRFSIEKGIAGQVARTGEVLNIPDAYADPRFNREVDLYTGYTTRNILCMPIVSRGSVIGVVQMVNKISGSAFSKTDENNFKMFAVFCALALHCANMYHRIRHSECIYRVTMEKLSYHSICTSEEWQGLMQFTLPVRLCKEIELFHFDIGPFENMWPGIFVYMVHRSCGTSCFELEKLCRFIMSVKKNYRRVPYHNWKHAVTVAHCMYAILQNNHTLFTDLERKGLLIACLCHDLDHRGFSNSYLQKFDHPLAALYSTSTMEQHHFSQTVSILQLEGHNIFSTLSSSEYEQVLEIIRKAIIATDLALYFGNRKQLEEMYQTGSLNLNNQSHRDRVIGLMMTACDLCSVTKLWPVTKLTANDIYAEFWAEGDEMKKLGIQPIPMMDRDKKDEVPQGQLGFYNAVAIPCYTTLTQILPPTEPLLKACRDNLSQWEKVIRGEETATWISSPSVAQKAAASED
Experiment: PDE10A inhibition, IMAP fluorescence polarization assay
Assay type: biochemical
Settings: PDE10A inhibition IC50 μM, substrate cAMP
reported-property: IC50

Guide cases for IC50, answers given:
CN1CC(=O)N2[C@H](c3ccc(Br)cc3)c3[nH]c4ccccc4c3C[C@H]2C1=O
> 50 µM
CCN1C(=O)[C@@H]2Cc3c([nH]c4ccccc34)[C@@H](c3ccc(Br)cc3)N2C1=O
> 50 µM
CN1CC(=O)N2[C@H](c3ccc(Br)cc3)c3[nH]c4ccccc4c3C[C@@H]2C1=O
> 50 µM
CN1CC(=O)N2[C@H](c3ccc4c(c3)OCO4)c3[nH]c4ccccc4c3C[C@@H]2C1=O [Compound I, tadalafil, reference compound]
> 50 µM

Then there is this molecule:
Qu. Fill in: IC50 of CCN1CC(=O)N2[C@H](c3ccc(Br)cc3)c3[nH]c4ccccc4c3C[C@@H]2C1=O is ___
Ans. 26.1 µM

* * *

Target: PDE9A (Homo sapiens, UniProt O76083)
Sequence (O76083 whole entry): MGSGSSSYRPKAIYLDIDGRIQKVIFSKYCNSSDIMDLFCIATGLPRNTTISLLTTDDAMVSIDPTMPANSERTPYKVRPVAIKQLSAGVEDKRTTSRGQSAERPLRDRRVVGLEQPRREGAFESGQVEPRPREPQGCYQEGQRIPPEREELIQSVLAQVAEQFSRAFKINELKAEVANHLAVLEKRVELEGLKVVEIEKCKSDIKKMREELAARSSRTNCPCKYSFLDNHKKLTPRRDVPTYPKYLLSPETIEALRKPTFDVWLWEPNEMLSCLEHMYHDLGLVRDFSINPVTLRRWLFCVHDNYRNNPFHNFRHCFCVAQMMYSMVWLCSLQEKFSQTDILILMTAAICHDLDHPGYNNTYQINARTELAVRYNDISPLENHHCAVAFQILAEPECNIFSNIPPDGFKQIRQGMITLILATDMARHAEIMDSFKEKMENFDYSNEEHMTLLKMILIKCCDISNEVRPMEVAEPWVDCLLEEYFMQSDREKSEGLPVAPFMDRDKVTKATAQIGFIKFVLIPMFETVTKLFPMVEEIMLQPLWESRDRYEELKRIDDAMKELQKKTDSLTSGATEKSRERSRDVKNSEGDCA
Assay: PDE9A inhibition, IMAP fluorescence polarization assay
Assay type: biochemical
Settings: read-out: PDE9A inhibition IC50 μM; substrate cGMP
reported-property: IC50

Qu. State its IC50 on PDE9A (Homo sapiens, UniProt O76083): CCCCN1CC(=O)N2[C@H](c3ccc(Br)cc3)c3[nH]c4ccccc4c3C[C@@H]2C1=O [Compound 33]
Ans. > 50 µM

* * *

Biological target: PDE11A (Homo sapiens, UniProt Q9HCR9)
Sequence (Q9HCR9 whole entry): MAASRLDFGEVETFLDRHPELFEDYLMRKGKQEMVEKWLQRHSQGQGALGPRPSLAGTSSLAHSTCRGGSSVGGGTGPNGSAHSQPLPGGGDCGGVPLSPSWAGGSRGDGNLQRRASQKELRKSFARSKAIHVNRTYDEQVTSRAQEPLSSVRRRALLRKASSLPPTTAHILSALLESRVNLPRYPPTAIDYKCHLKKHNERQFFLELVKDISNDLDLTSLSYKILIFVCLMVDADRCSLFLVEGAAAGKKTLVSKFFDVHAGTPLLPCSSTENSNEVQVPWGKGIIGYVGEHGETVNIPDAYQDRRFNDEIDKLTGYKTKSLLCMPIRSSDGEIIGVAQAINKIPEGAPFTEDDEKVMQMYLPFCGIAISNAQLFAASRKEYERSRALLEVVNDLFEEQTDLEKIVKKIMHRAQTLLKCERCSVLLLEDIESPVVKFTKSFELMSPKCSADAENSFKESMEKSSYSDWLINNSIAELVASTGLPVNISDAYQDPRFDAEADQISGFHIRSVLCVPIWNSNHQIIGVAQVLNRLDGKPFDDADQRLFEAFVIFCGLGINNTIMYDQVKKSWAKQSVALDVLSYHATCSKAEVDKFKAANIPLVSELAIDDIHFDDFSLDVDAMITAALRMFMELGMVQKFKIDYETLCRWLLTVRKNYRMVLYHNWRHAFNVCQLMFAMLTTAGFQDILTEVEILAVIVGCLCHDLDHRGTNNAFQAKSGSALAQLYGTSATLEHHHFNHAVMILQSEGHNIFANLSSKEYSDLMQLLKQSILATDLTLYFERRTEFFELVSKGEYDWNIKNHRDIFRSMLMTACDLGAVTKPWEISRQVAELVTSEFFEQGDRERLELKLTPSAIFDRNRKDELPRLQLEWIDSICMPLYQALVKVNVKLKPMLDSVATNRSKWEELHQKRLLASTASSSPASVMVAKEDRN
Test: PDE11A inhibition, IMAP fluorescence polarization assay
Assay type: biochemical
Settings: PDE11A inhibition IC50 μM, substrate cGMP
reported-property: IC50 (µM)

Guide cases for IC50, answers given:
CCN1CC(=O)N2[C@H](c3ccc(Br)cc3)c3[nH]c4ccccc4c3C[C@@H]2C1=O [Compound 29]
0.27
CCN1C(=O)[C@@H]2Cc3c([nH]c4ccccc34)[C@@H](c3ccc(Br)cc3)N2C1=O [Compound 8]
35.7

(I) CN1CC(=O)N2[C@H](c3ccc(Br)cc3)c3[nH]c4ccccc4c3C[C@H]2C1=O [Compound 28]
(II) CN1CC(=O)N2[C@H](c3ccc(Br)cc3)c3[nH]c4ccccc4c3C[C@@H]2C1=O [Compound 25]
Qu. Min IC50? I | II // respond with label for picked entry
Ans. II

* * *

Biological target: PDE3B (Homo sapiens)
Sequence (Q13370 whole entry): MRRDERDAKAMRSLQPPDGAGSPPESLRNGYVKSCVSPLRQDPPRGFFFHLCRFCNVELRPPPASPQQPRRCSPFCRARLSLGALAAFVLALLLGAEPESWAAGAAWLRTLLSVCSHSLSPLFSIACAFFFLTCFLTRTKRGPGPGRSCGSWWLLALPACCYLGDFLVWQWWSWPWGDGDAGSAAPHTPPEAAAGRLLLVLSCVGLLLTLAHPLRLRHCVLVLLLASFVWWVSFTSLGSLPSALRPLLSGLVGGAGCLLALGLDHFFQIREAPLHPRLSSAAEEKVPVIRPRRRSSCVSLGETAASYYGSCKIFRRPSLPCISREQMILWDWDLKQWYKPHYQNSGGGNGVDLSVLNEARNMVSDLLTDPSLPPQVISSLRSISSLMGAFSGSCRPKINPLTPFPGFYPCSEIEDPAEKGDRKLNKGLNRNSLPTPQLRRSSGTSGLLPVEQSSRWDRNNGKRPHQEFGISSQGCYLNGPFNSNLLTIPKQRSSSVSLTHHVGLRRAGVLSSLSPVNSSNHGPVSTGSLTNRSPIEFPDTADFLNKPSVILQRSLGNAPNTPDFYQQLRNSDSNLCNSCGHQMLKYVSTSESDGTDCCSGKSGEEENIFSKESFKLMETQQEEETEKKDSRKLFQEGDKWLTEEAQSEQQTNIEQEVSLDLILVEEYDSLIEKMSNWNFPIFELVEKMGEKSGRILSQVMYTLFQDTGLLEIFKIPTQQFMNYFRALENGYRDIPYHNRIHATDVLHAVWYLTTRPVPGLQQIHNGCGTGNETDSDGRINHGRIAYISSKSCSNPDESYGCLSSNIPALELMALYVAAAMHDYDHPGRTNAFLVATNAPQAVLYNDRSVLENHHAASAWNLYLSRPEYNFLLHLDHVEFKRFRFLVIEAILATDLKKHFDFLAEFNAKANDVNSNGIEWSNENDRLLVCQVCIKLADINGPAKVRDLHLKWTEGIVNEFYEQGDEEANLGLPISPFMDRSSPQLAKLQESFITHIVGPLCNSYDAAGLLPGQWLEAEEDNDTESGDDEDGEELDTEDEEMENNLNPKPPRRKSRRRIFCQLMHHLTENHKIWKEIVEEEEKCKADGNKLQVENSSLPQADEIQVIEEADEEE
Assay: PDE3B inhibition, IMAP fluorescence polarization assay
Format: biochemical
Conditions: read-out: PDE3B inhibition IC50 μM; substrate cAMP
reported-property: IC50

Qu. Fill in: IC50 of CCCCN1CC(=O)N2[C@H](c3ccc(Br)cc3)c3[nH]c4ccccc4c3C[C@@H]2C1=O is ___
Ans. > 50 µM

* * *

Molecular target: human PDE5 (Homo sapiens)
Assay: PDE5 inhibition, IMAP fluorescence polarization phosphodiesterase assay
Format: biochemical
Settings: read-out: % PDE5 inhibition at 10 μM
reported-property: inhibition at 10 µM (%)

CCCCN1C(=O)[C@H]2Cc3c([nH]c4ccccc34)[C@H](c3ccc(Br)cc3)N2C1=O [Compound 10]
72.1
CCC(C)N1C(=O)[C@@H]2Cc3c([nH]c4ccccc34)[C@H](c3ccc(Br)cc3)N2C1=O (some centres unmarked) [Compound 15]
72
CCN1CC(=O)N2[C@H](c3ccc(Br)cc3)c3[nH]c4ccccc4c3C[C@@H]2C1=O [Compound 29]
96
CCCCN1CC(=O)N2[C@@H](c3ccc(Br)cc3)c3[nH]c4ccccc4c3C[C@@H]2C1=O [Compound 34]
81.5
CCN1CC(=O)N2[C@@H](c3ccc(Br)cc3)c3[nH]c4ccccc4c3C[C@@H]2C1=O [Compound 30]
97.9

* * *

Molecular target: PDE11A (Homo sapiens, UniProt Q9HCR9)
Assay: PDE11A inhibition, IMAP fluorescence polarization assay
Assay type: biochemical
Conditions: cGMP as the substrate
reported-property: selectivity profile (selectivity index) PDE5 versus PDE11

Guide cases for selectivity profile (selectivity index) PDE5 versus PDE11, answers given:
CCCCN1CC(=O)N2[C@H](c3ccc(Br)cc3)c3[nH]c4ccccc4c3C[C@@H]2C1=O
67
CCN1CC(=O)N2[C@H](c3ccc(Br)cc3)c3[nH]c4ccccc4c3C[C@@H]2C1=O
90

(P) CCN1C(=O)[C@@H]2Cc3c([nH]c4ccccc34)[C@@H](c3ccc(Br)cc3)N2C1=O
(Q) CN1CC(=O)N2[C@H](c3ccc(Br)cc3)c3[nH]c4ccccc4c3C[C@H]2C1=O
(R) CN1CC(=O)N2[C@H](c3ccc(Br)cc3)c3[nH]c4ccccc4c3C[C@@H]2C1=O
Qu. Please rank these molecules by selectivity profile (selectivity index) PDE5 versus PDE11 in descending order. A complete answer lists every label in the requested sequence.
Ans. P, Q, R

* * *

Molecular target: human PDE5 (Homo sapiens)
Assay: PDE5 inhibition, IMAP fluorescence polarization phosphodiesterase assay
Format: biochemical
reported-property: IC50 (nM)

CN1CC(=O)N2[C@@H](c3ccc(Br)cc3)c3[nH]c4ccccc4c3C[C@H]2C1=O
1900

(P) CCN1CC(=O)N2[C@H](c3ccc(Br)cc3)c3[nH]c4ccccc4c3C[C@@H]2C1=O
(Q) CCCCN1C(=O)[C@H]2Cc3c([nH]c4ccccc34)[C@@H](c3ccc(Br)cc3)N2C1=O
(R) CCN1C(=O)[C@@H]2Cc3c([nH]c4ccccc34)[C@@H](c3ccc(Br)cc3)N2C1=O
(S) CCN1C(=O)[C@H]2Cc3c([nH]c4ccccc34)[C@H](c3ccc(Br)cc3)N2C1=O
(T) CN1CC(=O)N2[C@H](c3ccc(Br)cc3)c3[nH]c4ccccc4c3C[C@H]2C1=O
Qu. Please rank these compounds by IC50 in descending order. A complete answer lists every label in the requested sequence.
Ans. S, Q, R, T, P

* * *

Target: PDE10A (Homo sapiens)
Assay: PDE10A inhibition, IMAP fluorescence polarization assay
Format: biochemical
Details: read-out: PDE10A inhibition IC50 μM; substrate cGMP
reported-property: IC50

Qu. State its IC50 on PDE10A (Homo sapiens): CCCCN1CC(=O)N2[C@H](c3ccc(Br)cc3)c3[nH]c4ccccc4c3C[C@@H]2C1=O
Ans. > 50 µM

* * *

Molecular target: human PDE5 (Homo sapiens, UniProt O76074)
Experiment: PDE5 inhibition, IMAP fluorescence polarization phosphodiesterase assay
Assay type: biochemical
Conditions: read-out: % PDE5 inhibition at 10 μM
reported-property: inhibition at 10 µM (%)

Guide cases for inhibition at 10 µM, answers given:
CN1CC(=O)N2[C@H](c3ccc(Br)cc3)c3[nH]c4ccccc4c3C[C@H]2C1=O
91
CC(C)(C)N1C(=O)[C@H]2Cc3c([nH]c4ccccc34)[C@@H](c3ccc(Br)cc3)N2C1=O
91
COC(=O)[C@H]1Cc2c([nH]c3ccccc23)[C@H](c2ccc(Br)cc2)N1
10

(I) CC(C)(C)N1C(=O)[C@@H]2Cc3c([nH]c4ccccc34)[C@@H](c3ccc(Br)cc3)N2C1=O
(II) CC(C)(C)N1CC(=O)N2[C@@H](c3ccc(Br)cc3)c3[nH]c4ccccc4c3C[C@@H]2C1=O
(III) COC(=O)[C@H]1Cc2c([nH]c3ccccc23)[C@@H](c2ccc(Br)cc2)N1
(IV) COC(=O)[C@@H]1Cc2c([nH]c3ccccc23)[C@H](c2ccc(Br)cc2)N1
Qu. Put the compounds in ascending order of inhibition at 10 µM. A complete answer lists every label in the requested sequence.
Ans. III, IV, II, I
(III: 10%, IV: 17%, II: 27%, I: 94%)

(1) CCN1C(=O)[C@@H]2Cc3c([nH]c4ccccc34)[C@H](c3ccc(Br)cc3)N2C1=O
(2) COC(=O)[C@@H]1Cc2c([nH]c3ccccc23)[C@H](c2ccc(Br)cc2)N1C(=O)CCl
Qu. Which entry has a larger number for inhibition at 10 µM, 1 or 2 ? // respond with label for picked entry
Ans. 1
(1: 79.8%, 2: 19%)

(a) CCN1C(=O)[C@H]2Cc3c([nH]c4ccccc34)[C@H](c3ccc(Br)cc3)N2C1=O
(b) CC(C)(C)N1CC(=O)N2[C@@H](c3ccc(Br)cc3)c3[nH]c4ccccc4c3C[C@H]2C1=O
Qu. Which entry has a larger number for inhibition at 10 µM, a or b ? // respond with label for picked entry
Ans. a
(a: 89.3%, b: 12%)

(A) COC(=O)[C@@H]1Cc2c([nH]c3ccccc23)[C@@H](c2ccc(Br)cc2)N1
(B) COC(=O)[C@H]1Cc2c([nH]c3ccccc23)[C@@H](c2ccc(Br)cc2)N1C(=O)CCl
Qu. Which entry has a larger number for inhibition at 10 µM, A or B ? // respond with label for picked entry
Ans. A
(A: 75%, B: 25%)

* * *

Target: human PDE5 (Homo sapiens, UniProt O76074)
Assay: PDE5 inhibition, IMAP fluorescence polarization phosphodiesterase assay
Format: biochemical
reported-property: IC50 (nM)

CCN1CC(=O)N2[C@@H](c3ccc(Br)cc3)c3[nH]c4ccccc4c3C[C@H]2C1=O [Compound 31]
220

(I) COC(=O)[C@@H]1Cc2c([nH]c3ccccc23)[C@@H](c2ccc(Br)cc2)N1 [Compound 4]
(II) CC(C)(C)N1C(=O)[C@H]2Cc3c([nH]c4ccccc34)[C@@H](c3ccc(Br)cc3)N2C1=O [Compound 17]
Qu. Min IC50? I | II // respond with label for picked entry
Ans. II
(II: 270 nM, I: 4200 nM)

Source of measurements: paper PMC4994520
